# Assay: Clearance of 99m-Tc-IMP-192 in BALB/c mice
# Type: in vivo
# Stated Conditions: BALB/c, mouse; Kidney, 24 h
Where a SMILES comes first, the peptide text is derived from it. Side-chain parts run from the residue outwards. The star is where a group is joined. DTPA = O=C(O)CN(CCN(CC(=O)O)CC(=O)O)CCN(CC(=O)O)CC(=O)*; X1 = NC(=S)NN=CC(=O)*
Measurement Kind: tissue uptake at 24 h (%ID/g)
Give the value, in units of %ID/g, as a plain number.

# input Look at this compound and give its reported tissue uptake at 24 h. CC(=O)N[C@@H](CCCCNC(=O)CN(CCN(CCN(CC(=O)O)CC(=O)O)CC(=O)O)CC(=O)O)C(=O)N[C@@H](Cc1ccc(O)cc1)C(=O)N[C@@H](CCCCNC(=O)CN(CCN(CCN(CC(=O)O)CC(=O)O)CC(=O)O)CC(=O)O)C(=O)N[C@@H](CCCCNC(=O)[C@H](CS)NC(=O)C=NNC(N)=S)C(N)=O [IMP 192] (Ac-K(DTPA)YK(DTPA)K([Cys-X1])-NH2)
# output 1.21

---

# Assay: Clearance of 99m-Tc-IMP-192 in BALB/c mice
# Type: in vivo
# Stated Conditions: BALB/c, mouse; Lungs, 24 h
Where a SMILES comes first, the peptide text is derived from it. Side-chain parts run from the residue outwards. The star is where a group is joined. DTPA = O=C(O)CN(CCN(CC(=O)O)CC(=O)O)CCN(CC(=O)O)CC(=O)*; X1 = NC(=S)NN=CC(=O)*
Measurement Kind: tissue uptake at 24 h
Write the numeric value and append its unit.

# input Look at this compound and give its reported tissue uptake at 24 h. CC(=O)N[C@@H](CCCCNC(=O)CN(CCN(CCN(CC(=O)O)CC(=O)O)CC(=O)O)CC(=O)O)C(=O)N[C@@H](Cc1ccc(O)cc1)C(=O)N[C@@H](CCCCNC(=O)CN(CCN(CCN(CC(=O)O)CC(=O)O)CC(=O)O)CC(=O)O)C(=O)N[C@@H](CCCCNC(=O)[C@H](CS)NC(=O)C=NNC(N)=S)C(N)=O [IMP 192] (Ac-K(DTPA)YK(DTPA)K([Cys-X1])-NH2)
# output 0.05 %ID/g

---

# Assay: Clearance of 99m-Tc-IMP-192 in BALB/c mice
# Assay type: in vivo
# Stated Conditions: BALB/c, mouse; Spleen, 4 h
Where a SMILES comes first, the peptide text is derived from it. Side-chain parts run from the residue outwards. The star is where a group is joined. DTPA = O=C(O)CN(CCN(CC(=O)O)CC(=O)O)CCN(CC(=O)O)CC(=O)*; X1 = NC(=S)NN=CC(=O)*
Measurement Kind: tissue uptake at 4 h (%ID/g)
Give the value, in units of %ID/g, as a plain number.

# input Look at this compound and give its reported tissue uptake at 4 h. CC(=O)N[C@@H](CCCCNC(=O)CN(CCN(CCN(CC(=O)O)CC(=O)O)CC(=O)O)CC(=O)O)C(=O)N[C@@H](Cc1ccc(O)cc1)C(=O)N[C@@H](CCCCNC(=O)CN(CCN(CCN(CC(=O)O)CC(=O)O)CC(=O)O)CC(=O)O)C(=O)N[C@@H](CCCCNC(=O)[C@H](CS)NC(=O)C=NNC(N)=S)C(N)=O [IMP 192] (Ac-K(DTPA)YK(DTPA)K([Cys-X1])-NH2)
# output 0.05
